# ASSAY_COMMENT: folding enthalpy; higher = less favourable; fluorescence melt of hairpins on a sequencing array, two-state fit
# PARTICULARS: sodium 0.088 M
Hi there, I'd appreciate the recorded folding enthalpy for every entry that follows.
Answer with a number only, understood to be in kcal/mol.

Give the measured folding enthalpy of GATCCGGGATCGGATC ((((((....)))))) .
-40.1

Now this one: GGCCGCGGAAACACGGCC (((((.(....).)))))
-45.4

Now this one: CGTCTGAAAAGACG (((((....)))))
-29.4

Now this one: GTGCCGGGAAACTGGCGC (.(((.(....).))).)
-30.4

Now this one: GATCATAAATATGATC ((((((....))))))
-41.4

Now this one: GCACCCGAAAGGGATGC ((((((....))).)))
-28.7

Now this one: GCATTGCGAAAGCGAAGC ((.(.((....)).).))
-14.5

Now this one: GCTTAAGGAAACTTGAGC (((.(((....))).)))
-31.5

Now this one: GTTGCACGAAAGTGAAAC (((.(((....))).)))
-31.5

Now this one: GCCGGGCGAAAGCCACGC ((..(((....)))..))
-12.7

Now this one: GCGTAGCGAAAGCGAGGC ((.(.((....)).).))
-7.75

Now this one: GTACACCGAAAGGTATAC (((.(((....))).)))
-22.3

Now this one: GCACGCGAAAGCGTATGC ((((((....)))..)))
-13.3

Now this one: GCAGCGCGAAAGCGGGGC ((..(((....)))..))
-28

Now this one: GCGACTATCGC ((((...))))
-16.8

Now this one: GATCCGTAACGGATC ((((((...))))))
-34.1

Now this one: AAAGCGAAAGCTTT (((((....)))))
-15.5

Now this one: GAGGACCGAAAGGTACTC (((.(((....))).)))
-33.4

Now this one: GAGACAGGAAACTGTCTC (((((((....)))))))
-49.7

Now this one: GGTATAGCGAAAGCTACC (((..(((....))))))
-15.4

Now this one: GAGGCTGCGAAAGCACTC (((..(((....))))))
-11.2

Now this one: GATCCACTTTGGATC ((((((...))))))
-33.3

Now this one: GCGGCAGCCCGC ((((....))))
-10.3

Now this one: GATCCGCTGCGGATC ((((((...))))))
-48.3

Now this one: GATCCTCGCCAGGATC ((((((....))))))
-37.4

Now this one: GATCTTCGCCAAGATC ((((((....))))))
-33.7

Now this one: GTGTGCGGAAACGTACGC (.((.((....)).)).)
-27.3

Now this one: GCACACGAAAGTGGTGC ((((((....))).)))
-33

Now this one: GACTGACGAAAGTCCGTC (((.(((....))).)))
-29.4

Now this one: GGCATCGAAAGATTTGCC ((((((....)))..)))
-29.2

Now this one: GATCTCTATAGAGATC ((((((....))))))
-38.7

Now this one: GGAGGAGGAAACTCCTTC (.(((((....))))).)
-28.7

Now this one: GATCTGCTAACAGATC ((((((....))))))
-37.1

Now this one: GTTAGCGGAAACGTTAAC ((((.((....)).))))
-28.8

Now this one: CGCTTTCGGAAACGAGCG (((..(((....))))))
-24.9

Now this one: GGAGGTGGAAACACCTTC (.(((((....))))).)
-29

Now this one: GGTGACGAAAGTCTAACC ((((((....)))..)))
-18.2

Now this one: GATCTAAGTTAGATC ((((((...))))))
-29.9

Now this one: GGCTGCGAAAGCAGGGCC ((((((....)))..)))
-13

Now this one: GCGTTAACACGC ((((....))))
-20.1

Now this one: GCGGGGAGCCGC ((((....))))
-14.4
